Tested on: HeLa MZ
Assay: LBPA endosome anti-LBPA integrated intensity (sum per cell), Z-score; higher = more LBPA staining
Details: compound concentration in added solution (µM; 5 µl added to 20 µl cells): 10; 18 h
Structures can show the parent of a compound that is named as a salt.
# LBPA endosome anti-LBPA integrated intensity (z-score) >= -0.6 gives True, anything below gives False

1) CC(=O)OCC(CCn1cnc2cnc(N)nc21)COC(C)=O    True
2) C[C@@]1(O)CCOC(=O)C1    True
3) Cc1ccc(Cl)c(Nc2ccccc2C(=O)O)c1Cl [Meclofenamic acid sodium salt monohydrate]    False
4) CCCCNc1ccc(C(=O)OCCOCCOCCOCCOCCOCCOCCOCCOCCOC)cc1 [Benzonatate]    True

###

filipin (z-score) values, listed per item
System: HeLa MZ
Assay: filipin (cholesterol) integrated intensity within LBPA endosomes, Z-score; higher = more cholesterol in LBPA endosomes
Details: compound concentration in added solution (µM; 5 µl added to 20 µl cells): 10; 18 h
Counter-ions that a name gives are not always drawn.
reported.property: filipin (z-score)

1. CN(C)CCN(Cc1ccc(Cl)cc1)c1ccccn1 [Chloropyramine hydrochloride]    1.3
2. C[C@]12CC[C@@H]3c4ccc(O)cc4C[C@@H](CCCCCCCCC[S+]([O-])CCCC(F)(F)C(F)(F)F)[C@H]3[C@@H]1CC[C@@H]2O (some centres not stated) [Fulvestrant]    2.16
3. CC(=O)[C@H]1CC[C@H]2[C@@H]3C[C@H](C)C4=CC(=O)CC[C@]4(C)[C@H]3[C@@H](O)C[C@]12C [Medrysone]    0.0722
4. NS(=O)(=O)c1cc(Cl)c(Cl)c(S(N)(=O)=O)c1 [Dichlorphenamide]    -0.301
5. COC1=C(OC)C(=O)C(CCCCCCCCCCO)=C(C)C1=O [Idebenone]    -0.582
6. CN(C)CCOC(=O)COc1ccc(Cl)cc1 [Meclofenoxate hydrochloride]    -0.533
7. C#C[C@]1(O)CC[C@H]2[C@@H]3CCC4=CC(=O)CC[C@@H]4[C@H]3CC[C@@]21C [Norethindrone]    -0.487
8. O=C(O)COCCN1CCN(C(c2ccccc2)c2ccc(Cl)cc2)CC1 (configuration not stated) [Cetirizine dihydrochloride]    -0.525
9. Cc1ncc([N+](=O)[O-])n1CC(C)O (configuration not stated) [Secnidazole]    -0.579
10. OCCN(CCO)c1nc(N2CCCCC2)c2nc(N(CCO)CCO)nc(N3CCCCC3)c2n1 [Dipyridamole]    -0.39
11. Clc1ccc(C(Cn2ccnc2)OCc2ccsc2Cl)c(Cl)c1 (configuration not stated) [Tioconazole]    -0.127
12. CC(=O)NS(=O)(=O)c1ccc(N)cc1 [Sulfacetamide sodic hydrate]    -0.628
13. CCCc1nc(C)c2c(=O)nc(-c3cc(S(=O)(=O)N4CCN(CC)CC4)ccc3OCC)[nH]n12 [Vardenafil]    0.224
14. C[C@H]1C[C@H]2[C@@H]3CCC4=CC(=O)C=C[C@]4(C)[C@@]3(F)[C@@H](O)C[C@]2(C)[C@@]1(O)C(=O)CO [Betamethasone]    -0.463
15. COc1ccc(NS(=O)(=O)c2ccc(N)cc2)nn1 [Sulfamethoxypyridazine]    -0.522
16. CC[C@H]1OC(=O)C[C@@H](O)[C@H](C)[C@@H](O[C@@H]2O[C@H](C)[C@@H](O[C@H]3C[C@@](C)(O)[C@@H](O)[C@H](C)O3)[C@H](N(C)C)[C@H]2O)[C@@H](CC=O)C[C@@H](C)C(=O)/C=C/C(C)=C/[C@@H]1CO[C@@H]1O[C@H](C)[C@@H](O)[C@@H](OC)[C@H]1OC [Tylosin]    -0.321
17. CN1CCCN=C1/C=C/c1cccc(O)c1 [Oxantel pamoate]    -0.659
18. CC(=O)c1ccc2c(c1)N(CCCN(C)C)c1ccccc1S2 [Acetopromazine maleate salt]    1.7
19. CC(COc1ccccc1)N(CCCl)Cc1ccccc1 (configuration not stated) [Phenoxybenzamine hydrochloride]    -0.505
20. CC[N+](CC)(CC)CCOc1cccc(OCC[N+](CC)(CC)CC)c1OCC[N+](CC)(CC)CC [Gallamine triethiodide]    -0.576
21. OC(CCN1CCCCC1)(c1ccccc1)C1CC2C=CC1C2 (configuration not stated) [Biperiden hydrochloride]    0.363
22. CCCC(=O)Nc1ncnc2c1ncn2[C@@H]1O[C@@H]2COP(=O)(O)O[C@H]2[C@H]1OC(=O)CCC [Bucladesine sodium salt]    -0.372
23. c1ccc(-c2ccc(C(c3ccccc3)n3ccnc3)cc2)cc1 (configuration not stated) [Bifonazole]    -0.192
24. COc1cccc(N(C)C(=S)Oc2ccc3c(c2)CCCC3)n1 [Liranaftate]    -0.421
25. CN(C)CCCOc1nn(Cc2ccccc2)c2ccccc12 [Benzydamine hydrochloride]    0.942
26. Cn1c(=O)c2c(ncn2CCO)n(C)c1=O [Etofylline]    -0.58
27. C[C@@H]1C[C@H]2[C@@H]3C[C@H](F)C4=CC(=O)C=C[C@]4(C)[C@@]3(Cl)[C@@H](O)C[C@]2(C)[C@H]1C(=O)COC(=O)C(C)(C)C [Clocortolone pivalate]    -0.536
28. Cc1ccc(NC(=O)c2ccc(CN3CCN(C)CC3)cc2)cc1Nc1nccc(-c2cccnc2)n1 [Imatinib]    3.74
29. CCCNC(C)(C)COC(=O)c1ccccc1 [Meprylcaine hydrochloride]    -0.419
30. CCCNC(=O)NS(=O)(=O)c1ccc(Cl)cc1 [Chlorpropamide]    -0.571
31. CC1(C)[C@H](C(=O)O)N2C(=O)C[C@H]2S1(=O)=O [Sulbactam]    -0.509
32. CN(c1nccc(=O)[nH]1)C1CCN(c2nc3ccccc3n2Cc2ccc(F)cc2)CC1 [Mizolastine]    0.0832
